protocolSummary: Inhibition of human recombinant DNA topoisomerase-2

>  <compound>
O=C(O)[C@H]1[C@H]2C[C@@H]3c4[nH]c5ccccc5c4CCN3C[C@H]2CC[C@@H]1O

>  <resultComparator>
=

>  <IC50 (µM)>
175

$$$$
>  <compound>
COC(=O)[C@H]1[C@H]2C[C@@H]3c4[nH]c5cc(OC)ccc5c4CCN3C[C@H]2C[C@@H](OC(=O)c2cc(OC)c(OC)c(OC)c2)[C@@H]1OC

>  <resultComparator>
=

>  <IC50 (µM)>
20

$$$$
>  <compound>
COc1cc([C@@H]2c3cc4c(cc3[C@@H](O[C@@H]3O[C@@H]5CO[C@@H](C)O[C@H]5[C@H](O)[C@H]3O)[C@H]3COC(=O)[C@H]23)OCO4)cc(OC)c1O [ETOPOSIDE]

>  <resultComparator>
=

>  <IC50 (µM)>
40

$$$$
>  <compound>
COC(=O)[C@@H]1[C@H]2C[C@H]3c4[nH]c5ccccc5c4CCN3C[C@@H]2CC[C@@H]1O

>  <resultComparator>
=

>  <IC50 (µM)>
125

$$$$
>  <compound>
CC[C@@]1(O)C(=O)OCc2c1cc1n(c2=O)Cc2cc3ccccc3nc2-1

>  <resultComparator>
>

>  <IC50 (µM)>
1000

$$$$

====

system: DNA topoisomerase 1 (Homo sapiens)
Sequence (P11387 whole entry): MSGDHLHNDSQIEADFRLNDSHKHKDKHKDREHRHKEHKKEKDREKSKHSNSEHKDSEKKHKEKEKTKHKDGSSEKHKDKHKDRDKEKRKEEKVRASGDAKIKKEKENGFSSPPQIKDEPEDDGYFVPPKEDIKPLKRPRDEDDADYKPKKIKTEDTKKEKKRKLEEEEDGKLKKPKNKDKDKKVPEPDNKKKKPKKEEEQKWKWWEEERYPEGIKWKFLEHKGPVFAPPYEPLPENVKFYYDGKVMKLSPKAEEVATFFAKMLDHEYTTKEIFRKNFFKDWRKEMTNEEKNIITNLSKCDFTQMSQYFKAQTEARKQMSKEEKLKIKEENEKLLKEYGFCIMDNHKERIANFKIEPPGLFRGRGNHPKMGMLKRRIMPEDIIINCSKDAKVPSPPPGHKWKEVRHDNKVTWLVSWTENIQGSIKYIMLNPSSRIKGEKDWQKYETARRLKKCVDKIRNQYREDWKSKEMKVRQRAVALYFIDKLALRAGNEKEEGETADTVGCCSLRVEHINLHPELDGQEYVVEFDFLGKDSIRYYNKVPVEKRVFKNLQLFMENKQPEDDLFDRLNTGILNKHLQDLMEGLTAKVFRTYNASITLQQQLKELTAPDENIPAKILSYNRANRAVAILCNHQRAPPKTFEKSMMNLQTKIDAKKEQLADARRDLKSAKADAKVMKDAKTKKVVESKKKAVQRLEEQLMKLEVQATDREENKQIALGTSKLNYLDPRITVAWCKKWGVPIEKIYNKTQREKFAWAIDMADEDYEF
protocolSummary: Inhibition of human recombinant DNA topoisomerase1

>  <molecule>
COC(=O)[C@@H]1[C@H]2C[C@H]3c4[nH]c5ccccc5c4CCN3C[C@@H]2CC[C@@H]1O [YOHIMBINE]

>  <resultComparator>
=

>  <IC50 (µM)>
30

$$$$
>  <molecule>
COC(=O)[C@H]1[C@H]2C[C@@H]3c4[nH]c5cc(OC)ccc5c4CCN3C[C@H]2C[C@@H](OC(=O)c2cc(OC)c(OC)c(OC)c2)[C@@H]1OC [RESERPINE]

>  <resultComparator>
=

>  <IC50 (µM)>
160

$$$$
>  <molecule>
O=C(O)[C@H]1[C@H]2C[C@@H]3c4[nH]c5ccccc5c4CCN3C[C@H]2CC[C@@H]1O [ISORAUHIMBINIC ACID]

>  <resultComparator>
=

>  <IC50 (µM)>
40

$$$$
>  <molecule>
COc1cc([C@@H]2c3cc4c(cc3[C@@H](O[C@@H]3O[C@@H]5CO[C@@H](C)O[C@H]5[C@H](O)[C@H]3O)[C@H]3COC(=O)[C@H]23)OCO4)cc(OC)c1O [ETOPOSIDE]

>  <resultComparator>
>

>  <IC50 (µM)>
1000

$$$$

The origin of these recorded values is ChEMBL document CHEMBL1158781.
